Study system: human CD73 on the cell surface (293T/17-huCD73 cells) (human) (UniProt P21589)
Sequence (P21589 27-549): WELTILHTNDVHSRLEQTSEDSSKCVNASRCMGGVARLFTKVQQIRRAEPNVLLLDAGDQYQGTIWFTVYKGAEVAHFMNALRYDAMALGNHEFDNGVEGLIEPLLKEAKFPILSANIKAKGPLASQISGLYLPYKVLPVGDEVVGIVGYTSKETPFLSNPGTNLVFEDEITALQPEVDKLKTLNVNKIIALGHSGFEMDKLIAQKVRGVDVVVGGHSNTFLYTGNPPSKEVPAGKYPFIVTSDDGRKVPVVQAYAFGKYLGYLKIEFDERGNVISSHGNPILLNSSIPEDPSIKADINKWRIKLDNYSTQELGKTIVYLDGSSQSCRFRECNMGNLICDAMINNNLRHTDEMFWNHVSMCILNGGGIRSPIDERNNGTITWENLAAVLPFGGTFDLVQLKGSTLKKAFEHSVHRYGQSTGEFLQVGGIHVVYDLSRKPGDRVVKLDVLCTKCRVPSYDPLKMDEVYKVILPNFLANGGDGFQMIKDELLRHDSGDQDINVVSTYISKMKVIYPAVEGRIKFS
Assay info: flow cytometry on 293T/17-human CD73 cells
Experimental endpoint: EC50 (nM)

• JB24H3L2 (antibody, human IgG1, kappa, V domains shown) VH: QVQLVQSGAEVKKPGASVKMSCKASGYTFTDYNMHWVKQSHGKSLEWIGYIKPHNAGTTYNPKFEGRATLTVDTSASTAYMELRSLRSEDTAVYYCVRSDFLYWYFDVWGQGTTVTVSS VL: DIQMTQSPSSLSASVGDRVTITCTASSSVSSSYLHWYQQKPGSAPKLWIYSTSNLASGVPSRFSGSGSGTDYTLTISSLQPEDFATYYCHQYHRSPLTFGAGTKLEIKR = 3.01
• JB24H3L3 (antibody, human IgG1, kappa, V domains shown) VH: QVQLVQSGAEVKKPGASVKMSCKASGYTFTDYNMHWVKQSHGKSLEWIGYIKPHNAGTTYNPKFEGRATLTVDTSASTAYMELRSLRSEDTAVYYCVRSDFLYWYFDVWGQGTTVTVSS VL: DIVMTQSPSSLSASVGDRVTITCTASSSVSSSYLHWYQQKPGSSPKLWIYSTSNLASGVPGRFSGSGSGTDYTLTISSLQPEDFATYYCHQYHRSPLTFGAGTKLEIKR = 7.41
• JB24H2L1 (antibody, human IgG1, kappa, V domains shown) VH: QVQLVQSGAEVKKPGASVKMSCKASGYTFTDYNMHWVRQSPGKSLEWIGYIKPHNAGTTYNPKFEGRATLTVDTSASTAYMELSSLRSEDTAVYYCVRSDFLYWYFDVWGQGTTVTVSS VL: DIQMTQSPSSLSASVGDRVTITCTASSSVSSSYLHWYQQKPGKAPKLLIYSTSNLASGVPSRFSGSGSGTDFTLTISSLQPEDFATYYCHQYHRSPLTFGAGTKLEIKR = 2.4
